# IC50 values compiled below
- System: indoleamine 2,3-dioxygenase (IDO) (Homo sapiens)
- Test: HeLa cell-based indoleamine 2,3-dioxygenase (IDO) assay (kynurenine production, IFNγ-stimulated)
- Experimental Parameters: HeLa cells; potency class; read-out: Patent Potency Hela IC50 A < 10 nM, B > 10 nM, C > 100 nM

Ask | Name the recorded IC50 for COc1ccc(C(=O)N[C@H](CC2(C)COC2)[C@H]2CC[C@@H](c3ccnc4ccc(C(F)(F)F)cc43)CC2)cn1 (single isomer, unassigned) [Example 17c] .
Reply | > 100 nM

* * *

# pIC50 values compiled below
- System: indoleamine 2,3-dioxygenase (IDO) (Homo sapiens, UniProt P14902)
- Sequence (P14902 whole entry): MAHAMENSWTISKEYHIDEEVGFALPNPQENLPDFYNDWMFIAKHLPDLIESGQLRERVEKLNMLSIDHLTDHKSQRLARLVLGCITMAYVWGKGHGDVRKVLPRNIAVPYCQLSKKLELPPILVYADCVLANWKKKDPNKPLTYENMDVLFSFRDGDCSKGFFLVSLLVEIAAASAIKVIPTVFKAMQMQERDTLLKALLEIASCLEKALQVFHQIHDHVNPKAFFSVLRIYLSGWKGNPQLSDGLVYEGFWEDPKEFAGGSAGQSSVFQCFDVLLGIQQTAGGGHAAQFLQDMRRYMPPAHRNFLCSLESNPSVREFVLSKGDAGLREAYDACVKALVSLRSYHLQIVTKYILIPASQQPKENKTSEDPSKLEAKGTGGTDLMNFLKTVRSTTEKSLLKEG
- Test: HeLa cell-based indoleamine 2,3-dioxygenase (IDO) assay (kynurenine production, IFNγ-stimulated)
- Experimental Parameters: HeLa cells; potency class; read-out: Patent Potency Hela IC50 A < 10 nM, B > 10 nM, C > 100 nM
pIC50: −log10 of the molar value.

In [3]: df
Out[3]:
                                   compound  reported_result
0  CCC(NC(=O)c1ccc(OC)nc1)C1CCC(c2ccnc3cc(C(F)(F)F)ccc23)CC1 (single isomer, unassigned) [Example 19a]           < 7.00
1  COCCOCC(NC(=O)c1cnc(OC)nc1)C1CCC(c2ccnc3ccc(F)cc23)CC1 (single isomer, unassigned) [Example 16b]           > 8.00

Here's the next entry for you.
Ask | Name the recorded pIC50 for CCC(NC(=O)c1ccc(OC)nc1)C1CCC(c2cc[nH]c(=O)c2C(F)F)CC1 (single isomer, unassigned) .
Reply | < 7.00

* * *

- System: human IDO1 (Homo sapiens)
- Construct: expressed in transfected cells
- Test: HEK293 cell-based indoleamine 2,3-dioxygenase (IDO) assay
- Experimental Parameters: human IDO1/HEK293 cells, 20 hours incubation; read-out: IDO1 HEK Human IC50
Quantity Measured: IC50 (nM)
Respond with the bare value in nM.

                                   molecule  reported_result
0  C[C@@H](NC(=O)c1ccc(-n2cccn2)nc1)[C@H]1CC[C@@H](c2ccnc3ccc(F)cc32)CC1 [Example 4]               11
1  COc1ccc(C(=O)N[C@H](C)[C@H]2CC[C@@H](c3ccnc4ccc(F)cc43)CC2)cn1 [Example 2]                1
2  C[C@@H](NC(=O)c1ccncc1)[C@H]1CC[C@@H](c2ccnc3ccc(F)cc32)CC1 [Example 34]               13

Ask | Name the recorded IC50 for C[C@@H](NC(=O)c1cnccn1)[C@H]1CC[C@@H](c2ccnc3ccc(F)cc32)CC1 [Example 35] .
Reply | 22

Ask | Name the recorded IC50 for C[C@@H](NC(=O)c1ccc(F)nc1)[C@H]1CC[C@@H](c2ccnc3ccc(F)cc32)CC1 [Example 7] .
Reply | 5

Ask | Name the recorded IC50 for CC[C@@H](NC(=O)c1ccc(OC)nc1)[C@H]1CC[C@@H](c2ccnc3ccc(F)cc32)CC1 (single isomer, unassigned) [Example 10a] .
Reply | 224

Ask | Name the recorded IC50 for C[C@@H](NC(=O)c1ccc(O)nc1)[C@H]1CC[C@@H](c2ccnc3ccc(F)cc32)CC1 [Example 3] .
Reply | 252

Ask | Name the recorded IC50 for COc1ncc(C(=O)N[C@H](C)[C@H]2CC[C@@H](c3ccnc4ccc(F)cc43)CC2)cn1 [Example 8] .
Reply | 5

Ask | Name the recorded IC50 for C[C@@H](NC(=O)c1cccnc1)[C@H]1CC[C@@H](c2ccnc3ccc(F)cc32)CC1 [Example 33] .
Reply | 10

Ask | Name the recorded IC50 for C[C@@H](NC(=O)c1ccc(Cl)nc1)[C@H]1CC[C@@H](c2ccnc3ccc(F)cc32)CC1 [Example 5] .
Reply | 10

Ask | Name the recorded IC50 for CC[C@@H](NC(=O)c1ccc(OC)nc1)[C@H]1CC[C@@H](c2ccnc3ccc(F)cc32)CC1 (single isomer, unassigned) [Example 10c] .
Reply | 55

Ask | Name the recorded IC50 for COc1ccc(-c2ccc(C(=O)N[C@H](C)[C@H]3CC[C@@H](c4ccnc5ccc(F)cc54)CC3)cn2)cn1 [Example 1] .
Reply | 56

Just for reference, patent US11066392B2 is where these values come from.
